experiment: growth inhibition, single agents and combos, HD-MB03, cell-based, BGB or cisplatin IC20 combos, synergistic combos for chromothripsis tumors (AID 1671455); conditions: HD-MB03 medulloblastoma cells, measured here: combo with BGB at IC20, at 0.5 µM, stronger effect = higher value;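 also: 0% = vehicle DMSO and 100% = high DMSO as cytotoxic control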
propertyLabel: inhibition (%)
Reply with just the number (in %).

1) NC(=O)c1ncn(C2OC(CO)C(O)C2O)c1O (stereo unspecified) :: -11.6
2) NC(=O)c1cccc2[nH]c(-c3ccc(C4CCCN4)cc3F)nc12 (stereo unspecified) :: 1.45
3) CC(C)c1ccc(-c2cc(=O)c3ccccc3o2)cc1 :: -14
4) CC(C)C(=O)SCCCCCCC(=O)Nc1nc(-c2ccccc2)cs1 :: 5.74

Query block: Report inhibition for COc1nc(N)nc2c1ncn2[C@@H]1O[C@H](CO)[C@@H](O)[C@H]1O please.
Result block: -11

Query block: Report inhibition for Cc1ccc([N+](=O)[O-])cc1S(=O)(=O)N(C)/N=C\c1cnc2ccc(Br)cn12 please.
Result block: 88.3

###

assay: drug combination growth inhibition, ovarian cancer – cell-based, oncology-focused library, rucaparib conditional, profiling panel (AID 1508598); conditions: patient-derived ovarian cancer cells, CellTiter-Glo viability, 144 h; at 0.313 µM; OCI-P5x cells; without rucaparib; stronger effect = lower value
propertyLabel: viability (%)
Reply with just the number (in %).

1. O=C(O)c1cc(I)ccc1NC(=O)[C@H](Cc1ccccc1)NCc1ccccc1 :: 85.4
2. COC1=C2C[C@H](C)C[C@@H](OC)[C@H](O)[C@H](C)/C=C(\C)[C@H](OC(N)=O)[C@@H](OC)/C=C/C=C(\C)C(=O)NC(=CC1=O)C2=O :: 4.3
3. COc1cccc2c1C(=O)c1c(O)c3c(c(O)c1C2=O)C[C@@](O)(C(=O)CO)C[C@H]3O[C@H]1C[C@H](N)[C@@H](O)[C@H](C)O1 :: 15.5
4. Cc1cc(C)c(S(=O)(=O)n2cc(C)cc2C)c(C)c1 :: 98.8

Query block: Report viability for C[C@@H]1C[C@H]2[C@@H]3CCC4=CC(=O)C=C[C@]4(C)[C@]3(F)[C@H](O)C[C@]2(C)[C@]1(O)C(=O)CO please.
Result block: 108

Query block: Report viability for CC(C)C[C@H](NP(=O)(O)O[C@@H]1O[C@@H](C)[C@H](O)[C@@H](O)[C@H]1O)C(=O)N[C@@H](Cc1c[nH]c2ccccc12)C(=O)O please.
Result block: 98.7

Query block: Report viability for CC(C)CC(CC(=O)NO)C(=O)N[C@@H](Cc1ccc2ccccc2c1)C(=O)N[C@@H](C)C(=O)NCCN (some centres not stated) please.
Result block: 92.3

###

assay: viability loss with induced miR-34 in A549 – imaging, A549 dox-inducible miR-34, nuclei and caspase counts, primary screen (AID 1347080); conditions: A549 miR-34 inducible, Hoechst nuclei count, 48 h; stronger effect = lower value; cell number ratio, induced over uninduced
Below is a list of entries, each paired with its recorded fold change value.
Note: the reply should be a number with no unit written.

1. CCCN1CC(CSC)C[C@@H]2c3cccc4[nH]cc(c34)C[C@H]21 (stereo partly drawn) :: 0.938
2. CC1(C)S[C@@H]2C(NC(=O)C(N)c3ccccc3)C(=O)N2C1C(=O)O (stereo partly drawn) :: 0.917
3. COc1cc(C(O)CO)ccc1OS(=O)(=O)O (stereo not drawn) :: 1.02
4. CC1(C)S[C@@H]2[C@H](NC(=O)[C@H](NC(=O)N3CCNC3=O)c3ccccc3)C(=O)N2[C@H]1C(=O)O :: 0.917
5. C[C@@]12C(=O)N(c3ccc(C(=O)Nc4cccc5cccnc45)cc3)C(=O)[C@@H]1C1C=CC2C1 (stereo partly drawn) :: 1.75

Query block: Report fold change for Nc1ccn(C2OC(CO)C(O)C2(F)F)c(=O)n1 (stereo not drawn) please.
Result block: 1.02

Query block: Report fold change for Cc1ccc2c(C(=O)N(C)C(C)C)cc(-c3cnc(C(C)C)nc3)nc2c1 please.
Result block: 0.942

Query block: Report fold change for CN1C2CC(OC(=O)[C@H](CO)c3ccccc3)CC1C1OC12 (stereo partly drawn) please.
Result block: 0.96

Query block: Report fold change for Cn1nc(C(C)(C)C)cc1NC(=O)Cn1cc(-c2ccccc2N)cn1 please.
Result block: 0.913

Query block: Report fold change for CCCCc1nc2cc(C=CC(=O)NO)ccc2n1CCN(CC)CC please.
Result block: 1.12
